Value source: ChEMBL document CHEMBL1138978

Exercise: for every item that follows, state its recorded pKi.
# tgt: Sodium-dependent serotonin transporter (Rattus norvegicus, UniProt P31652)
# Sequence (P31652 whole entry): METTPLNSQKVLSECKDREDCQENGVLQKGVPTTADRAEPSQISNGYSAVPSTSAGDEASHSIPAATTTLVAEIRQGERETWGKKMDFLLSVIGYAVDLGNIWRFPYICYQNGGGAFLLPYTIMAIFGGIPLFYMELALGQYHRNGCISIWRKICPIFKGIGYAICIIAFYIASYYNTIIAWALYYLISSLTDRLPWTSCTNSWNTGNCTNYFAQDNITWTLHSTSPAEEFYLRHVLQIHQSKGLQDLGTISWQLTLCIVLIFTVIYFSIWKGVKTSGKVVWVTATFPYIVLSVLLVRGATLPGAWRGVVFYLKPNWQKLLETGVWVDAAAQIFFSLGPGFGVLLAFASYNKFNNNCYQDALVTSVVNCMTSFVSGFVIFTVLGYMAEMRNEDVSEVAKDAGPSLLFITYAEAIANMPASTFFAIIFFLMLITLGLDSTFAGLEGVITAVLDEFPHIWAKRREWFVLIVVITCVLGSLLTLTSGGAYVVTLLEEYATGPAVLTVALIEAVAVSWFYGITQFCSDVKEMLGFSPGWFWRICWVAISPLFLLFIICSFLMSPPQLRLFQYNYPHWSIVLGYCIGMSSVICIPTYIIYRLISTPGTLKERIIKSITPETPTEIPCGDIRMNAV
# protocol notes: Displacement of [3H]paroxetine from rat cortical 5-HT reuptake
# pKi: negative log10 of molar concentration; output just the value

Request: Suppose we examine the compound c1ccc2c(c1)NCC(CNCCc1c[nH]c3ccccc13)O2 (stereo not drawn) ; what pKi value has been reported?
Result: 7.05

Request: Next: COc1cccc2c1OC(CN1CC=C(c3c[nH]c4ccc(F)cc34)CC1)CN2C (stereo not drawn)
Result: 7.90

Request: Next: CN1CC(CNCCc2c[nH]c3ccc(F)cc23)Oc2ccccc21 (stereo not drawn)
Result: 7.91

Request: Next: CCN1CC(CNCCc2c[nH]c3ccc(F)cc23)Oc2ccccc21 (stereo not drawn)
Result: 7.82

Request: Next: CCCN1CC(CN2CC=C(c3c[nH]c4ccc(F)cc34)CC2)Oc2c(OC)cccc21 (stereo not drawn)
Result: 7.65

Request: Next: COc1cccc2c1OC(CN1CC=C(c3c[nH]c4ccc(F)cc34)CC1)CN2 (stereo not drawn)
Result: 8.16

Request: Next: COc1ccc2c(c1)OC(CNCCc1c[nH]c3ccc(F)cc13)CN2 (stereo not drawn)
Result: 7.93

Request: Next: C1=C(c2c[nH]c3ccccc23)CCN(CC2CNc3ccccc3O2)C1 (stereo not drawn)
Result: 8.08

Request: Next: CCCN1CC(CNCCc2c[nH]c3ccccc23)Oc2ccccc21 (stereo not drawn)
Result: 7.64

Request: Next: CC(C)CN1CC(CNCCc2c[nH]c3ccc(F)cc23)Oc2ccccc21 (stereo not drawn)
Result: 7.29

Request: Next: CN1CC(CNCCc2c[nH]c3ccccc23)Oc2ccccc21 (stereo not drawn)
Result: 7.05

Request: Next: CC(C)N1CC(CNCCc2c[nH]c3ccc(F)cc23)Oc2ccccc21 (stereo not drawn)
Result: 7.68

Request: Next: CC(C)N1CC(CNCCCc2c[nH]c3ccccc23)Oc2ccccc21 (stereo not drawn)
Result: 7.62

Request: Next: CCN1CC(CN2CC=C(c3c[nH]c4ccc(F)cc34)CC2)Oc2c(OC)cccc21 (stereo not drawn)
Result: 7.88

Request: Next: c1ccc(CN2CC(CNCCCc3c[nH]c4ccccc34)Oc3ccccc32)cc1 (stereo not drawn)
Result: 6.96

Request: Next: Fc1ccc2[nH]cc(CCNCC3CNc4ccccc4O3)c2c1 (stereo not drawn)
Result: 7.80

Request: Next: CN1CC(CNCCc2c[nH]c3ccc(F)cc23)Oc2cc(Cl)ccc21 (stereo not drawn)
Result: 7.37

Request: Next: COc1cccc2c1OC(CNCCc1c[nH]c3ccc(F)cc13)CN2 (stereo not drawn)
Result: 8.50
